# MEASURED TARGET: T1, QP273 (cynoSIRPα2-flag-his T-557-14) (cynomolgus)
# T1 construct: also called cynomolgus SIRPα (QP273)
# T1 chain: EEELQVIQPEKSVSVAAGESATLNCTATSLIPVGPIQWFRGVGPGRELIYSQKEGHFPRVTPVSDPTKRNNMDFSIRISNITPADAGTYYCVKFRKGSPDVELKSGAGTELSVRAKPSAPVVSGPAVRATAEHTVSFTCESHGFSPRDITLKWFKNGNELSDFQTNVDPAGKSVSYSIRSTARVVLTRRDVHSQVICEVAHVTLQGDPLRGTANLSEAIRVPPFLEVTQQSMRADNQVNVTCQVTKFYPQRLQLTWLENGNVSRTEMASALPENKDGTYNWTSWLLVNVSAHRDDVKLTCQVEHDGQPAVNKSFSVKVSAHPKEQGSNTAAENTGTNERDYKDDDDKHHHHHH
# ASSAY: binding ELISA, antigen coated
EC50 overview
Could you give me the number in ng/mL? Just the number is fine.

Below, 2 binders whose answers are already recorded.
QP2561589 (antibody, human IgG4, V domains shown, Human IgG4 heavy constant region and kappa CL) VH: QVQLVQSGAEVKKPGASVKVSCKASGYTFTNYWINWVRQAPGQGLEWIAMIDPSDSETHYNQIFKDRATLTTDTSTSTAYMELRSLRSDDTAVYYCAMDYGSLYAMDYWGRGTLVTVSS VL: DIVLTQSPDSLAVSLGERATINCRASKSVSSSGYNYIFWYQQKPGQPPKLLIYLASNLDSGVPDRFSGSGSGTDFTLTISSLQAEDVAVYYCQESWELPTFGQGTKLEIK    1.43
QP256291 (antibody, human IgG4, V domains shown, Human IgG4 heavy constant region and kappa CL) VH: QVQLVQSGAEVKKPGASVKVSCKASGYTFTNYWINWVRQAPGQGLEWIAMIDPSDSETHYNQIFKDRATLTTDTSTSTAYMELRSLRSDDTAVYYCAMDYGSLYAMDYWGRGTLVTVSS VL: DIVLTQSPDSLAVSLGERATINCRASKSVGSSGYNWLFWYQQKPGQPPKLLIYLASNRDSGVPDRFSGSGSGTDFTLTISSLQAEDVAVYYCQHSRELPTFGQGTKLEIK    1.62

Now turn to the next binder.
Which EC50 reading was recorded for the binder QP2561771 (antibody, human IgG4, V domains shown, Human IgG4 heavy constant region and kappa CL) VH: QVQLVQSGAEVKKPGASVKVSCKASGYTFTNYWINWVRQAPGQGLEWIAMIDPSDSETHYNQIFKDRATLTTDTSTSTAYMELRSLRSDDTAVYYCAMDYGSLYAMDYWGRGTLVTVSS VL: DIVLTQSPDSLAVSLGERATINCRASKSVSSSGYNWIFWYQQKPGQPPKLLIYLASNRDSGVPDRFSGSGSGTDFTLTISSLQAEDVAVYYCQESRELPTFGQGTKLEIK ?
1.22
